- TEST TARGET: HLA-A*03:01
- TEST: IEDB peptide-MHC binding, purified MHC/competitive/radioactivity; filed as Kd, often an IC50 or EC50 that approximates it; bounds were set here for any values at or beyond the usual limits of such assays
- CONDITION LABEL: source organism: Dengue virus 2 Jamaica/1409/1983
# Kd per record follows

[
  {
    "RESIDUE STRING": "ALTALNDMGK",
    "TEST TARGET": "HLA-A*03:01",
    "Kd (nM)": 1290
  },
  {
    "RESIDUE STRING": "FLMSGKGIGK",
    "TEST TARGET": "HLA-A*03:01",
    "Kd (nM)": 42.6
  },
  {
    "RESIDUE STRING": "GMLQGRGPLK",
    "TEST TARGET": "HLA-A*03:01",
    "Kd (nM)": 6.17
  },
  {
    "RESIDUE STRING": "HMIVGRQEK",
    "TEST TARGET": "HLA-A*03:01",
    "Kd (nM)": 66.6
  },
  {
    "RESIDUE STRING": "RSTPFNMLK",
    "TEST TARGET": "HLA-A*03:01",
    "Kd (nM)": 8.05
  }
]

// provenance: the Immune Epitope Database (IEDB)
